Biological target: α/β TCR/CD3 complex on Jurkat, Clone E6-1 cells (human) (UniProt P07766)
Assay: flow cytometry on Jurkat Clone E6-1 cells, Fab titration 10 µg/ml to 10 ng/ml; AUC of MFI vs log concentration, gain vs TPP-1374
The label depends only on % gain in binding AUC: 1.0 if it is at least 80%, 0.0 if it is smaller.

[[record]]
binder = "TPP-1389 Fab fragment (Fab, V domains shown) VH: EVQLVQSGAEVKKPGASVKVSCKASGYKFTRYVMHWVRQAPGQGLEWMGYINPYNDVTKYAEKFQGRVTLTSDTSTSTAYMELSSLRSEDTAVYYCARGSYYDYEGFVYWGQGTLVTVSS VL: QIQMTQSPSSLSASVGDRVTITCSATSSVSYMHWYQQKPGKAPKRWIYDTSKLARGVPSRFSGSGSGTDYTLTISSLQPEDAATYYCQQWSSNPLTFGGGTKVEIKR"
classassignment = 1.0

[[record]]
binder = "TPP-1383 Fab fragment (Fab, V domains shown) VH: EVQLVQSGAEVKKPGASVKVSCKASGYKFTSYVMHWVRQAPGQGLEWMGYINPYNDVTKYAEKFQGRVTLTSDTSTSTAYMELSSLRSEDTAVHYCARGSYYDYEGFVYWGQGTLVTVSS VL: QIQMTQSPSSLSASVGDRVTITCSATSSVKYMHWYQQKPGKAPKRWIYDTSKLASGVPSRFSGSGSGTDYTLTISSLQPEDAATYYCQQWSSNPLTFGGGTKVEIKR"
classassignment = 0.0

[[record]]
binder = "TPP-1376 Fab fragment (Fab, V domains shown) VH: EVQLVQSGAEVKKPGASVKVSCKASGYKFKSYVMHWVRQAPGQGLEWMGYINPYNDVTKYAEKFQGRVTLTSDTSTSTAYMELSSLRSEDTAVHYCARGSYYDYEGFVYWGQGTLVTVSS VL: QIQMTQSPSSLSASVGDRVTITCSATSSVSYMHWYQQKPGKAPKRWIYDTSKLASGVPSRFSGSGSGTDYTLTISSLQPEDAATYYCQQWSSNPLTFGGGTKVEIKR"
classassignment = 1.0


Assess whether reported % gain in binding AUC for TPP-1380 Fab fragment (Fab, V domains shown) VH: EVQLVQSGAEVKKPGASVKVSCKASGYKFTSYVMHWVRQAPGQGLEWMGYINPYRDVTKYAEKFQGRVTLTSDTSTSTAYMELSSLRSEDTAVHYCARGSYYDYEGFVYWGQGTLVTVSS VL: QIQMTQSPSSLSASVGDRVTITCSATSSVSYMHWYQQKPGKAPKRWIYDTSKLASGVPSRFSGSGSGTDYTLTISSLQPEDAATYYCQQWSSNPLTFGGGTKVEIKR sits at 80% or higher.
0.0
